Hello, the source for this data is PubChem BioAssay (NCI), in case you need it.

System: MCF7 breast
ASSAY INFO: NCI-60 one-dose screen, 48 h (100 = growth as untreated, 0 = no growth, -100 = all killed)
TEST SETTINGS: 10 µM unless noted
About 83,000 compounds went through this panel and 20% of them were active in at least one assay; those are over-represented in the sample as a whole.
Documented growth across a set of compounds
Report as a plain number; the unit % is understood.

Some compounds with recorded growth:
>>> reported("Cn1c(=O)c2c(nc(N/N=C/c3ccccc3Cl)n2C)n(C)c1=O")
96.2
>>> reported("N/C(=C\\C(=O)n1nc(-c2ccccc2)cc1N)c1ccccc1")
35
>>> reported("O=C1OCC2=C1C(c1ccccc1)c1cc3c(cc1N2CCO)CCC3 (centres undefined)")
-3.45
>>> reported("CCCCCCCCCCCC1=NC(C)(C)CN1CC(C)O (centres undefined)")
25.8
>>> reported("CS(=O)(=O)c1ccc(C(=O)N/N=C/c2cccc3ccccc23)cc1")
44.9
>>> reported("CS(=O)(=O)c1ccc(C(=O)N/N=C/c2ccccc2Cl)cc1")
93.3

Quickly give me recorded growth for Cc1ccccc1Nc1n[nH]c(Cc2ccccc2)n1
99.1

###

Test system: KM12 colon
ASSAY INFO: NCI-60 one-dose screen, 48 h
TEST SETTINGS: 10 µM unless noted
This is part of a sample that, as a whole, favours compounds with a hit. Of some 83,000 tested, about 20% had one in any assay. Active and inactive are the calls of the source. How the source made its calls: active means growth percent below 10; inactive means the rest.
Pick one and only one: active, inactive

As a guide, the following entries are already answered.
>>> qualitative_label("CCn1c(Cc2ccccc2Nc2c(Cl)cccc2Cl)nnc1SCC(=O)Nc1cccc(OC)c1")
"inactive"
>>> qualitative_label("Clc1cc2nc(-c3ccccc3)c(-c3ccccc3)nc2cc1Cl")
"inactive"
>>> qualitative_label("COC(=O)C(Br)(C(=O)OC)C(Br)C(Br)C(Br)c1ccccc1 (centres undefined)")
"inactive"

Assay result, entry CC(C)(C)c1nn(-c2ccccc2)c2c1C(=O)CSC(c1ccccc1Cl)N2 (centres undefined) — outcome?
inactive

Assay result, entry Cc1c(C(=O)CCl)c(=O)n(-c2ccccc2)n1C — outcome?
inactive

Assay result, entry CCOc1cc(/C=N\NC(=O)C[N+](C)(C)C)ccc1O — outcome?
inactive

Assay result, entry COc1cc2ccc(C(C)=O)cc2cc1OC — outcome?
inactive

Assay result, entry COc1cc(NCC(O)CN(CC(C)C)CC(C)C)c2ncccc2c1 (centres undefined) — outcome?
inactive

Assay result, entry NNc1ccc(S(N)(=O)=O)cc1 — outcome?
inactive

Assay result, entry COc1ccc(-c2ccc(-c3ccc(C(=N)N)s3)s2)cc1 — outcome?
active

###

Documented growth across a set of compounds
System: RXF 393 renal
ASSAY INFO: NCI-60 one-dose screen, 48 h (100 = growth as untreated, 0 = no growth, -100 = all killed)
TEST SETTINGS: 10 µM unless noted
This is part of a sample that, as a whole, favours compounds with a hit. Of some 83,000 tested, about 20% had one in any assay.
Report as a plain number; the unit % is understood.

Some compounds with recorded growth:
>>> reported("CCOC(=O)c1cnc(SCC)nc1SC#N")
173
>>> reported("COc1ccc(-c2nc3c(c(-c4ccc(Cl)cc4)nn3-c3ccccc3)c(-c3ccc(O)cc3)c2C#N)cc1")
-12.7
>>> reported("CCCC(CCC)(C(N)=O)C(=O)O")
124
>>> reported("Oc1ccc(-c2nc3ccccc3s2)cc1CN(Cc1ccccn1)Cc1ccccn1")
40.5

Quickly give me recorded growth for O=C(Nc1ccc([N+](=O)[O-])cc1)c1cc2ccccc2cc1O
-10.4

Quickly give me recorded growth for O=C(N/N=C\c1cc(Br)ccc1O)c1ccncc1
54.9

Quickly give me recorded growth for CCOCCNc1ccc(S(=O)(=O)c2ccc(N)cc2)cc1N
130

Quickly give me recorded growth for C=C(C)[C@@H]1CC[C@]2(C(=O)O)CC[C@]3(C)[C@H](CC[C@@H]4[C@@]5(C)C[C@@H](CC#Cc6ccc(C(C)=O)s6)[C@H](O)C(C)(C)[C@@H]5CC[C@]43C)[C@@H]12
74.3

Quickly give me recorded growth for COc1ccc(-c2nc(SCCC(C)C)nc(Nc3ccc(C(=O)O)cc3)c2C#N)cc1
90.1

###

Tested on: DU-145 prostate
ASSAY INFO: NCI-60 one-dose screen, 48 h (100 = growth as untreated, 0 = no growth, -100 = all killed)
TEST SETTINGS: 10 µM unless noted
This is part of a sample that, as a whole, favours compounds with a hit. Of some 83,000 tested, about 20% had one in any assay.
MEASURED PARAMETER: growth (%)
Report as a plain number; the unit % is understood.

Some molecules with recorded growth:
>>> reported("S=C(Cc1ccccc1)N1CCN(c2ccccc2Cl)CC1")
102
>>> reported("O=C(O)c1ccccc1Oc1cc(-c2ccco2)nc(OCCN2CCOCC2)n1")
113
>>> reported("COc1cc2ncnc(Nc3ccc(S(=O)(=O)Nc4nccs4)cc3)c2cc1OCCCN1CCOCC1")
110
>>> reported("NC(N)=N/N=C/c1ccc(Cl)cc1")
73.8

Quickly give me recorded growth for O=C(O)C(CCc1ccccc1)NCc1ccccc1 (stereo not drawn)
95.7

Quickly give me recorded growth for NNC(=O)CSc1nc2scc(-c3ccccc3)c2c(=O)n1-c1ccccc1
111

Quickly give me recorded growth for COc1cnc2c(c1)C(=O)c1c-2n(CCCN2CCCC2)c(=O)c2cc(Cl)ccc12
36

###

Test system: SK-MEL-28 melanoma
ASSAY INFO: NCI-60 one-dose screen, 48 h (100 = growth as untreated, 0 = no growth, -100 = all killed)
TEST SETTINGS: 10 µM unless noted
Compounds without any hit were thinned out: in the full panel of roughly 83,000, 20% have a hit.
Documented growth across a set of compounds
Report as a plain number; the unit % is understood.

>>> reported("COc1ccc(CNc2c3ccccc3nc3ccc(OC)cc23)cc1")
41.3
>>> reported("COc1cc(C)c(Cl)cc1C1=NN(c2ccc(S(N)(=O)=O)cc2)C(/C=C/c2ccccc2)C1 (configuration not stated)")
88.1
>>> reported("CC(C)CC1NC(=O)C(CC(C)C)N(CO)C1=O (configuration not stated)")
121
>>> reported("O=C(CC(=O)c1cccc(Cl)c1)c1cccc(Cl)c1")
56
>>> reported("CCCCCCCCCCCCNC(=O)N[C@H](C(=O)N[C@H]1/C=C/CCNC(=O)/C=C/[C@H](C)NC1=O)C(C)C")
-70.2
>>> reported("CC1=C(/C=C/C(C)=C/C=C(C(=O)O)\\C(C)=C\\C(=O)O)C(C)(C)CCC1")
114
>>> reported("N#CCCn1cnc2c(N)ncnc21")
107
>>> reported("COc1ccc(C(=O)OC2C(OC3C(O)COC(O[C@H]4C[C@H]5[C@@H]6CC=C7C[C@@H](O)CC[C@]7(C)[C@H]6CC[C@]5(C)[C@H]4[C@H](C)C(=O)CCC(C)C)C3OC(C)=O)OCC(O)C2O)cc1 (some centres not stated)")
-54.6
>>> reported("C#C[C@]1(O)CC[C@H]2[C@@H]3CC=C4c5sc(-c6cccc(Br)c6)nc5CC[C@]4(C)[C@H]3CC[C@@]21C")
54.7
>>> reported("Cc1ccccc1NC(=O)c1sc2nc3c(cc2c1N)C(=O)CCC3")
52.8

Quickly give me recorded growth for CCCCCCCCOC(=O)C(C)OC(=O)OCCOCCOC(=O)OC(C)C(=O)OCCCCCCCC (configuration not stated)
106

Quickly give me recorded growth for S=C(Nc1ccc(Cl)cc1)Nc1ccc(Cl)cc1 (tested in a mixture with another compound)
25.8

###

Test system: K-562 leukemia
ASSAY INFO: NCI-60 one-dose screen, 48 h
TEST SETTINGS: 10 µM unless noted
This is part of a sample that, as a whole, favours compounds with a hit. Of some 83,000 tested, about 20% had one in any assay. Activity calls are given as the source filed them. Rule for the calls: active = growth percent below 10; inactive = the rest.
Pick one and only one: TRUE for active, FALSE for inactive

As a guide, the following entries are already answered.
>>> qualitative_label("COC(=O)OC1C(O[C@H]2C[C@H]3[C@@H]4CC=C5C[C@@H](O)CC[C@]5(C)[C@H]4CC[C@]3(C)[C@H]2[C@H](C)C(=O)CCC(C)C)OCC(O)C1OC1OCC(O)C(O)C1OC(=O)c1ccc(OC)cc1 (stereo partly drawn)")
"TRUE"
>>> qualitative_label("C=C1C[C@@]2(C)C(CC[C@]3(C)C2CC=C2C4CC(C)(C)C[C@@H](OC(=O)/C(C)=C\\C)[C@]4(C(=O)O)CC[C@]23C)C(C)(C)C1=O (stereo partly drawn)")
"TRUE"
>>> qualitative_label("CCSc1cnnc2ccccc12")
"FALSE"

Assay result, entry COc1ccc(C(=O)O)cc1.[Ag] — outcome?
TRUE

Assay result, entry O=C(Cc1ccc([N+](=O)[O-])cc1)Oc1ccccc1 — outcome?
FALSE

Assay result, entry NC(N)=NC1CCCCC1 — outcome?
FALSE
